# Tested on: erythropoietin
# assay procedure: In vitro erythropoietin induction (ELISA of culture supernatant)
# Assay type: cell-based
# assay context: Hep3B cell line, 200 uM, 16 hours, relative to vehicle control
property label: EPO fold induction

CC(C)[C@H](NC(=O)c1c(O)nc2sc3c(n2c1=O)CCC(C)(C)C3)C(=O)O (single isomer, unassigned): + (<2 fold)
C[C@@H](NC(=O)c1c(O)nc2sc3c(n2c1=O)CCC(C)(C)C3)C(=O)O (single isomer, unassigned): + (<2 fold)
CC1(C)CCc2c(sc3nc(O)c(C(=O)N[C@H](C(=O)O)c4ccccc4)c(=O)n23)C1 (single isomer, unassigned): + (<2 fold)
